- System: OVCAR-8 ovarian
- assay notes: NCI-60 one-dose screen, 48 h (100 = growth as untreated, 0 = no growth, -100 = all killed)
- experimental parameters: 10 µM unless noted
About 83,000 compounds went through this panel and 20% of them were active in at least one assay; those are over-represented in the sample as a whole.
outcome measure: growth (%)

compound	test value
O=C(COc1ccc(-c2nc3cc(Cl)c(Cl)cc3[nH]2)cc1)N=Nc1c(O)[nH]c2ccc(Cl)cc12	37
CN(c1cc2ncc(=O)[nH]c2cc1NC(N)=NCc1ccc(Cl)cc1)C1CCCCC1	70.4
O=C(NCc1ccc(Cl)cc1Cl)C1CCC(=O)N1c1cccs1 (centres undefined)	93.5
COC(=O)/C=C1/SC(=Nc2cccc(OC)c2)N(CCc2c[nH]c3ccc(O)cc23)C1=O	41.6
Cn1c(=O)c2nc(/C=C/c3ccccc3)c(=O)[nH]c2n(C)c1=S	105
Cn1cc(-c2nonc2-c2cn(C)c3ccccc23)c2ccccc21	17.4
Cc1ccc(C)n1-c1ccccc1-n1c(C)ccc1C	102
C=CCn1c(SCC(=O)Nc2ccc(C(=O)/C=C/c3ccc(Cl)cc3)cc2)nnc1-c1ccc(Br)cc1	57.6
COC1/C=C/OC2(C)Oc3c(C)c(O)c4c(O)c(c(/C=N/Nc5ccc([N+](=O)[O-])cc5[N+](=O)[O-])c(O)c4c3C2=O)NC(=O)C(C)=C/C=C/C(C)C(O)C(C)C(O)C(C)C(OC(C)=O)C1C (centres undefined)	27.3

====

- Tested on: NCI-H522 lung
- assay notes: NCI-60 one-dose screen, 48 h
- experimental parameters: 10 µM unless noted
Compounds without any hit were thinned out: in the full panel of roughly 83,000, 20% have a hit. Activity calls are given as the source filed them. The calls were made as follows: active = growth percent below 10; inactive = the rest.
Outcomes: true (active), false (inactive)

compound	assigned class
O=C(CN1C(=O)NC2NC(=O)NC21)N/N=C/c1ccccc1[N+](=O)[O-] (stereo not given)	false
Clc1cc(Cl)c(Cl)c(-c2nnc(SCc3ccncc3Br)o2)c1	false
CN(C)CCNC(=O)c1cc2c3cc(Cl)ccc3[nH]c2c2ncccc12	false
COc1cc2c(c(OC)c1OC)CCC(c1cccc(NC(=O)c3ccc(Br)cc3)c1)O2 (stereo not given)	false
CCN(CC)Cc1cc(C=C2C(=O)NC(=S)NC2=O)cc(OC)c1O	false
CCCCCCCCCCC(CN(CC)CC)C(O)c1ccccc1 (stereo not given)	true
COc1cc(OC)c(NC(=O)c2cc3ccccc3cc2O)cc1Cl	true
CCOC(=O)[C@@H]1CSC(CC)=C(C(=O)O)N1	false
N#Cc1c(-c2ccccc2)cc(-c2ccc(Nc3nc(Nc4ccc(Cl)cc4)nc(Nc4ccc(Cl)cc4)n3)cc2)nc1N	false
COc1cc2ncnc(Nc3ccc(S(=O)(=O)Nc4cc(C)on4)cc3)c2cc1OCCCN1CCN(c2ccc(F)cc2)CC1	false

====

- Tested on: NCI-H23 lung
- assay notes: NCI-60 one-dose screen, 48 h
- experimental parameters: 10 µM unless noted
The panel holds about 83,000 compounds, 20% with a hit somewhere; the sample as a whole holds those more often. Active and inactive are the calls of the source. Rule for the calls: active = growth percent below 10; inactive = the rest.
Classes used: active, inactive

compound string	assigned class
Cc1ccccc1/C=C/C(=O)c1cccc(OCCCOc2cccc(C(=O)/C=C/c3ccccc3C)c2)c1	inactive
c1ccc2cc(C[n+]3ccn(CCCCCCCCCCn4cc[n+](Cc5ccc6ccccc6c5)c4)c3)ccc2c1	active
CC/C(=C(/c1ccc(Cl)cc1)c1ccc(OCCN(C)C)cc1)c1ccc(Cl)cc1	inactive
O=C(Nc1ccc(Oc2cccc(F)c2)c(Cl)c1)c1cccnc1	inactive
O=C1c2c(c3c4ccccc4[nH]c3c3ccc4ccccc4c23)C(=O)N1CCN1CCNCC1	inactive
CCc1ccc(CCCC(=O)O)cc1	inactive
NC(=O)CSc1oc(-c2ccccc2)nc1S(=O)(=O)c1ccc(Br)cc1	inactive
CCOc1ccc(NC(=O)CSc2oc(-c3ccccc3)nc2S(=O)(=O)c2ccc(C)cc2)cc1	inactive
Cc1ccc2c(n1)C(=O)C(Br)=C(C1CCCC1)C2=O	inactive
CCCC/C(CC)=N\NS(=O)(=O)c1ccc([N+](=O)[O-])cc1	inactive

====

- Tested on: UACC-257 melanoma
- assay notes: NCI-60 one-dose screen, 48 h (100 = growth as untreated, 0 = no growth, -100 = all killed)
- experimental parameters: 10 µM unless noted
Compounds without any hit were thinned out: in the full panel of roughly 83,000, 20% have a hit.
growth overview
outcome measure: growth (%)

compound	units label	test value
CC(=O)N1N=C(c2ccc(C(F)(F)F)c(F)c2)CC1c1[nH]c(C)c(C(=O)NCC(F)(F)F)c1C (stereo not given)	%	91.6
C#Cc1c2c(c(OC)c3c1OCO3)[C@H]([C@H]1OC(=O)c3c1ccc(OC)c3OC)N(C)CC2	%	82.8
O=C(Nc1nc2cc(C(=O)N3CCN(C(c4ccccc4)c4ccccc4)CC3)ccc2o1)c1ccc(NC2CCCCC2)c([N+](=O)[O-])c1	%	62.2
C#CCOc1cccc(Nc2ncnc3cc(NC(=O)C=C)ccc23)c1	%	25.3
CCCCCCC12CCC(=O)N1CCc1cncn12 (stereo not given)	%	101
N#Cc1ccc2c(c1)C(=O)c1c-2n(CCCN)c(=O)c2cc([N+](=O)[O-])ccc12	%	-100
CCOC(=O)c1cc2c(n1C)-c1nc(NC(C)=O)sc1CCC2	%	67.8
N#CC1=C(N)Oc2c(sc3c(Br)cccc23)C1c1ccc(Cl)cc1 (stereo not given)	%	64
CC(C)=CCCC(C)c1ccc(C)c2c1OCN(CCCCCO)C2 (stereo not given)	%	78.4
COC(=O)c1c(C)c2n(c1C)C(=O)C(c1ccccc1)=C2	%	18.1

====

- Test system: HCT-15 colon
- assay notes: NCI-60 one-dose screen, 48 h
- experimental parameters: 10 µM unless noted
This is part of a sample that, as a whole, favours compounds with a hit. Of some 83,000 tested, about 20% had one in any assay. Calls of active or inactive are those of the source. The calls were made as follows: active = growth percent below 10; inactive = the rest.
Outcomes: YES for active, NO for inactive

compound	target desc	assigned class
CCSc1oc(-c2ccccc2)nc1[P+](c1ccccc1)(c1ccccc1)c1ccccc1	HCT-15 colon	YES
COc1ccc(C2=Nc3c(N)nc(N)nc3NC(c3cccc(Nc4ccnc5cc(C(F)(F)F)ccc45)c3)C2)cc1 (stereo not drawn)	HCT-15 colon	NO
COC(=O)[C@@H](CCCCNC(=O)[C@]12CCC(C)(C)C[C@@H]1C1=CC[C@@H]3[C@@]4(C)C/C(=C/c5ccco5)C(=O)C(C)(C)[C@@H]4CC[C@@]3(C)[C@]1(C)CC2)NC(=O)[C@]12CCC(C)(C)C[C@@H]1C1=CC[C@@H]3[C@@]4(C)C/C(=C/c5ccco5)C(=O)C(C)(C)[C@@H]4CC[C@@]3(C)[C@]1(C)CC2	HCT-15 colon	NO
Cc1ccc(C)n1-c1ccccc1-n1c(C)ccc1C	HCT-15 colon	NO
OCCn1cc(-c2nc(-c3c[nH]c4ncccc34)cs2)c2cc(F)ccc21	HCT-15 colon	NO
Cn1c(=O)c2nc(/C=C/c3ccccc3)c(=O)[nH]c2n(C)c1=S	HCT-15 colon	NO
COc1ccc2c(c1)N(CCO)C1=C(C(=O)OC1)C2c1cccc(F)c1 (stereo not drawn)	HCT-15 colon	YES
CN1CCN(c2cc(Nc3cc(C4CC4)[nH]n3)nc(Nc3ccc(CC(=O)NCc4cccc(F)c4)cc3)n2)CC1	HCT-15 colon	NO
CCN(CC)Cc1cc(C=C2C(=O)NC(=S)NC2=O)cc(OC)c1O	HCT-15 colon	NO
NC(=O)C(=O)c1ccccc1NC=O	HCT-15 colon	NO
Cc1cc(C(=O)O)c(C)n1-c1cccc(C(=O)O)c1	HCT-15 colon	YES
c1ccc([P+](c2ccccc2)(c2ccccc2)c2ccc3c4ccc([P+](c5ccccc5)(c5ccccc5)c5ccccc5)c5cccc(c6cccc2c63)c54)cc1	HCT-15 colon	NO
NC(=O)c1cccc(-n2ccc3cc(NC(=O)c4ccc(N5CCOCC5)c(C(F)(F)F)c4)ccc32)n1	HCT-15 colon	NO
COC(=O)c1c(C)nc(C)c2c1C(=O)C(Br)=C(NCc1ccccc1)C2=O	HCT-15 colon	NO
CCCCCCC12CCC(=O)N1CCc1cncn12 (stereo not drawn)	HCT-15 colon	NO
COc1ccc(NC(=O)c2sc3nc(C)c(C(=O)/C=C/c4ccccc4)cc3c2N)cc1	HCT-15 colon	YES
NC(Cc1ccc(O)c([N+](=O)[O-])c1)C(=O)O (stereo not drawn)	HCT-15 colon	NO
O=C(Nc1ccc(Oc2cccc(Cl)c2)c(Cl)c1)c1cnccn1	HCT-15 colon	NO
CC(=O)c1c(C)nc(SCC(=O)Nc2cccc(O)c2)n1-c1ccc(Cl)cc1	HCT-15 colon	NO
O=C1NC(=C(Cl)Cl)/C(=N\S(=O)(=O)NCc2ccccc2)N1	HCT-15 colon	NO
CCOC(=O)c1cc(C(=O)c2cc(OC)c(OC)c(OC)c2)n2ncccc12	HCT-15 colon	NO
COc1ccc(Cc2cnc(NC(=O)c3cc(C)oc3C)s2)cc1	HCT-15 colon	NO
Cc1cn(-c2cc(NC(=O)c3cccc(C#Cc4cccc5[nH]nc(N)c45)c3)cc(C(F)(F)F)c2)cn1	HCT-15 colon	NO
N#Cc1ccc(O)c(C2=NCC(c3cccc(Oc4ccccc4)c3)O2)c1 (stereo not drawn)	HCT-15 colon	NO
O=[N+]([O-])c1ccc(O)cc1Br	HCT-15 colon	NO
CCOc1ccc(NC(=O)CSc2oc(-c3ccccc3)nc2S(=O)(=O)c2ccc(C)cc2)cc1	HCT-15 colon	NO
O=C1Nc2ccccc2/C1=C/c1cccn1CCCCn1c2ccccc2c(=O)c2ccccc21	HCT-15 colon	NO
CC1=C2[C@@H](CC1)[C@]1(C)O[C@@](C(C)C)(C[C@H]1OC(=O)[C@H](C)O)[C@H]2OC(=O)/C=C/c1ccccc1	HCT-15 colon	NO
CCCCCC(/C=N\NC(=S)N/N=C/C(=C/c1ccccc1)CCCCC)=C\c1ccccc1	HCT-15 colon	NO
CSc1nc(N)c(NS(=O)(=O)c2ccc(C(C)=O)cc2)c(=O)[nH]1	HCT-15 colon	NO
Nc1c(C(=O)Nc2ccncc2)sc2nc3c(cc12)C(O)CCC3 (stereo not drawn)	HCT-15 colon	NO
COc1cc2oc(-c3cccc(NC(=O)c4ccccc4)c3)cc(=O)c2c(OC)c1OC	HCT-15 colon	NO
O=C(c1ccncc1)N1N=C(c2ccc(Cl)cc2)C[C@H]1c1cn(-c2ccccc2)nc1-c1ccccc1	HCT-15 colon	NO
CC1CCc2c(C(=O)Nc3ncc(Cc4cccc([N+](=O)[O-])c4)s3)csc2C1 (stereo not drawn)	HCT-15 colon	NO
COc1c(B(O)O)cccc1-c1cc(C)c2c(ccc3[nH]ncc32)n1	HCT-15 colon	NO
O=C(COc1ccc(-c2nc3cc(Cl)c(Cl)cc3[nH]2)cc1)N=Nc1c(O)[nH]c2ccc(Cl)cc12	HCT-15 colon	NO
Cn1ccnc1C(=O)/C=C/c1ccc(C(=O)Nc2ccccc2O)cc1	HCT-15 colon	YES
COc1cccc(CNc2ccc3ncnc(Nc4ccc(F)c(Cl)c4)c3c2)c1	HCT-15 colon	NO
